Please go through the items and note down their pIC50.
# Assayed System: 80S Ribosome
# Test Details: Inhibition of human ribosome containing eukaryotic wild type ribosomal RNA A-site in rabbit reticulocyte lysates assessed as reduction in ribosome-mediated protein synthesis in presence of S-30 extracts by fire fly luciferase synthesis based cell-free translation assay
Numbers only, as −log10 of the molar value.

INSERT INTO assay_data (structure, readout_label, experimental_value) VALUES
  ('NC[C@@H]1O[C@H](O[C@H]2[C@@H](O)[C@H](O[C@@H]3[C@@H](O)[C@H](N)C[C@H](N)[C@H]3O[C@H]3O[C@H](CO)[C@@H](OCO[C@H]4O[C@H](CO)[C@@H](O)[C@H](O)[C@H]4O)[C@H](O)[C@H]3N)O[C@@H]2CO)[C@H](N)[C@@H](O)[C@@H]1O', 'pIC50', 4.53),
  ('NC[C@@H]1O[C@H](O[C@H]2[C@@H](O)[C@H](O[C@@H]3[C@@H](O)[C@H](N)C[C@H](N)[C@H]3O[C@H]3O[C@H](CO)[C@@H](O)[C@H](O)[C@H]3N)O[C@@H]2CO)[C@H](N)[C@@H](O)[C@@H]1O', 'pIC50', 4.09),
  ('NC[C@@H]1O[C@H](O[C@H]2[C@@H](O)[C@H](O[C@@H]3[C@@H](O)[C@H](N)C[C@H](N)[C@H]3O[C@H]3O[C@H](CO)[C@@H](O[C@@H]4O[C@H](CO)[C@@H](O)[C@H](O)[C@H]4O)[C@H](O)[C@H]3N)O[C@@H]2CO)[C@H](N)[C@@H](O)[C@@H]1O', 'pIC50', 4.12);

Now turn to the next molecule.
pIC50 in this record for `NC[C@@H]1O[C@H](O[C@H]2[C@@H](O)[C@H](O[C@@H]3[C@@H](O)[C@H](N)C[C@H](N)[C@H]3O[C@H]3O[C@H](CO)[C@@H](O[C@H]4O[C@H](CO)[C@@H](O)[C@H](O)[C@@H]4O)[C@H](O)[C@H]3N)O[C@@H]2CO)[C@H](N)[C@@H](O)[C@@H]1O` : 5.55

====

# Test system: Escherichia coli
# Test Details: Antibacterial activity against Escherichia coli isolate 001 by broth microdilution assay
# Assay type: functional
Readout Label: MIC

INSERT INTO assay_data (structure, assayed_system, experimental_value) VALUES
  ('NC[C@@H]1O[C@H](O[C@H]2[C@@H](O)[C@H](O[C@@H]3[C@@H](O)[C@H](N)C[C@H](N)[C@H]3O[C@H]3O[C@H](CO)[C@@H](O[C@@H]4O[C@H](CO)[C@H](O)[C@H](O)[C@H]4O)[C@H](O)[C@H]3N)O[C@@H]2CO)[C@H](N)[C@@H](O)[C@@H]1O', 'Escherichia coli', '> 128 µg/mL'),
  ('NC[C@@H]1O[C@H](O[C@H]2[C@@H](O)[C@H](O[C@@H]3[C@@H](O)[C@H](N)C[C@H](N)[C@H]3O[C@H]3O[C@H](CO)[C@@H](O[C@H]4O[C@H](CO)[C@@H](O)[C@H](O)[C@H]4O)[C@H](O)[C@H]3N)O[C@@H]2CO)[C@H](N)[C@@H](O)[C@@H]1O', 'Escherichia coli', '128 µg/mL'),
  ('NC[C@@H]1O[C@H](O[C@H]2[C@@H](O)[C@H](O[C@@H]3[C@@H](O)[C@H](N)C[C@H](N)[C@H]3O[C@H]3O[C@H](CO)[C@@H](O[C@@H]4O[C@H](CO)[C@@H](N)[C@H](O)[C@H]4O)[C@H](O)[C@H]3N)O[C@@H]2CO)[C@H](N)[C@@H](O)[C@@H]1O', 'Escherichia coli', '> 64 µg/mL');

Report MIC for every entry below.
1. NC[C@@H]1O[C@H](O[C@H]2[C@@H](O)[C@H](O[C@@H]3[C@@H](O)[C@H](N)C[C@H](N)[C@H]3O[C@H]3O[C@H](CO)[C@@H](OCO[C@H]4O[C@H](CO)[C@@H](O)[C@H](O)[C@H]4O)[C@H](O)[C@H]3N)O[C@@H]2CO)[C@H](N)[C@@H](O)[C@@H]1O
2. NC[C@@H]1O[C@H](O[C@H]2[C@@H](O)[C@H](O[C@@H]3[C@@H](O)[C@H](N)C[C@H](N)[C@H]3O[C@H]3O[C@H](CO)[C@@H](O[C@@H]4O[C@H](CO)[C@@H](O)[C@H](O)[C@H]4O)[C@H](O)[C@H]3N)O[C@@H]2CO)[C@H](N)[C@@H](O)[C@@H]1O

1: ≥ 128 µg/mL; 2: > 128 µg/mL

Report MIC for every entry below.
1. NC[C@@H]1O[C@H](O[C@H]2[C@@H](O)[C@H](O[C@@H]3[C@@H](O)[C@H](N)C[C@H](N)[C@H]3O[C@H]3O[C@H](CO)[C@@H](O[C@@H]4O[C@H](CO)[C@@H](O)[C@H](O)[C@@H]4O)[C@H](O)[C@H]3N)O[C@@H]2CO)[C@H](N)[C@@H](O)[C@@H]1O
2. NC[C@@H]1O[C@H](O[C@H]2[C@@H](O)[C@H](O[C@@H]3[C@@H](O)[C@H](N)C[C@H](N)[C@H]3O[C@H]3O[C@H](CO)[C@@H](OCCCc4ccccc4)[C@H](O)[C@H]3N)O[C@@H]2CO)[C@H](N)[C@@H](O)[C@@H]1O

1. > 128 µg/mL
2. 16 µg/mL

Report MIC for every entry below.
1. NC[C@@H]1O[C@H](O[C@H]2[C@@H](O)[C@H](O[C@@H]3[C@@H](O)[C@H](N)C[C@H](N)[C@H]3O[C@H]3O[C@H](CO)[C@@H](O[C@H]4O[C@H](CO)[C@@H](N)[C@H](O)[C@H]4O)[C@H](O)[C@H]3N)O[C@@H]2CO)[C@H](N)[C@@H](O)[C@@H]1O
2. NC[C@@H]1O[C@H](O[C@H]2[C@@H](O)[C@H](O[C@@H]3[C@@H](O)[C@H](N)C[C@H](N)[C@H]3O[C@H]3O[C@H](CO)[C@@H](O[C@H]4O[C@H](CO)[C@@H](O)[C@H](O)[C@@H]4O)[C@H](O)[C@H]3N)O[C@@H]2CO)[C@H](N)[C@@H](O)[C@@H]1O

["32 µg/mL", "> 128 µg/mL"]

====

# Assayed System: 80S Ribosome
# Test Details: Inhibition of human ribosome containing eukaryotic wild type ribosomal RNA A-site in rabbit reticulocyte lysates assessed as reduction in ribosome-mediated protein synthesis in presence of S-30 extracts by fire fly luciferase synthesis based cell-free translation assay
# Satisfied = IC50 below 10 µM (exclusive); Not satisfied = IC50 at/above 10 µM

# example entries with known answers
INSERT INTO measurements (compound, class_name) VALUES
  ('NC[C@@H]1O[C@H](O[C@H]2[C@@H](O)[C@H](O[C@@H]3[C@@H](O)[C@H](N)C[C@H](N)[C@H]3O[C@H]3O[C@H](CO)[C@@H](O[C@@H]4O[C@H](CO)[C@@H](O)[C@H](O)[C@@H]4O)[C@H](O)[C@H]3N)O[C@@H]2CO)[C@H](N)[C@@H](O)[C@@H]1O', 'Not satisfied'),
  ('CN[C@@H]1[C@@H](O[C@H]2O[C@H](CO)[C@@H](N)[C@H](O)[C@H]2O)O[C@H]2C[C@@H](N)[C@@H](O[C@H]3[C@H](O)[C@@H](O)[C@H](N)C[C@@H]3N)O[C@@H]2[C@@H]1O', 'Not satisfied'),
  ('NC[C@@H]1O[C@H](O[C@H]2[C@@H](O)[C@H](O[C@@H]3[C@@H](O)[C@H](N)C[C@H](N)[C@H]3O[C@H]3O[C@H](CO)[C@@H](O[C@@H]4O[C@H](CO)[C@H](O)[C@H](O)[C@H]4O)[C@H](O)[C@H]3N)O[C@@H]2CO)[C@H](N)[C@@H](O)[C@@H]1O', 'Not satisfied'),
  ('NC[C@@H]1O[C@H](O[C@H]2[C@@H](O)[C@H](O[C@@H]3[C@@H](O)[C@H](N)C[C@H](N)[C@H]3O[C@H]3O[C@H](CO)[C@@H](O[C@H]4O[C@H](CO)[C@@H](N)[C@H](O)[C@H]4O)[C@H](O)[C@H]3N)O[C@@H]2CO)[C@H](N)[C@@H](O)[C@@H]1O', 'Satisfied'),
  ('NC[C@@H]1O[C@H](O[C@H]2[C@@H](O)[C@H](O[C@@H]3[C@@H](O)[C@H](N)C[C@H](N)[C@H]3O[C@H]3O[C@H](CO)[C@@H](OCCCc4ccccc4)[C@H](O)[C@H]3N)O[C@@H]2CO)[C@H](N)[C@@H](O)[C@@H]1O', 'Not satisfied'),
  ('NC[C@@H]1O[C@H](O[C@H]2[C@@H](O)[C@H](O[C@@H]3[C@@H](O)[C@H](N)C[C@H](N)[C@H]3O[C@H]3O[C@H](CO)[C@@H](O[C@H]4O[C@H](CO)[C@@H](O)[C@H](O)[C@H]4O)[C@H](O)[C@H]3N)O[C@@H]2CO)[C@H](N)[C@@H](O)[C@@H]1O', 'Satisfied'),
  ('NC[C@@H]1O[C@H](O[C@H]2[C@@H](O)[C@H](O[C@@H]3[C@@H](O)[C@H](N)C[C@H](N)[C@H]3O[C@H]3O[C@H](CO)[C@@H](O[C@H]4O[C@H](CO)[C@H](O)[C@H](O)[C@H]4O)[C@H](O)[C@H]3N)O[C@@H]2CO)[C@H](N)[C@@H](O)[C@@H]1O', 'Satisfied');

Attention now shifts to the item below.
Bench note: check whether NC[C@@H]1O[C@H](O[C@H]2[C@@H](O)[C@H](O[C@@H]3[C@@H](O)[C@H](N)C[C@H](N)[C@H]3O[C@H]3O[C@@H]4COC(CCc5ccccc5)O[C@H]4[C@H](O)[C@H]3N)O[C@@H]2CO)[C@H](N)[C@@H](O)[C@@H]1O (some centres undefined) shows IC50 below 10 µM
Not satisfied

These measurements were taken from ChEMBL document CHEMBL3588782.
